src = ChEMBL document CHEMBL3045233

- TARGET_ENTITY: Nicotinic acetylcholine receptor alpha8 subunit (Periplaneta americana)
- TEST_NAME: Neuroblocking activity in Periplaneta americana (American cockroach) nicotinic acetylcholine receptor in abdominal fifth and sixth ganglia nerve assessed as neuroblocking concentration by neurophysiological test
Give measured log(1/BC) for each item. Keep answers brief.
Give bare numbers.

- CHEMICAL_STRING: "O=[N+]([O-])/N=c1\\ccccn1Cc1ccc(Cl)nc1"
  ASSAY_VALUE: 5.09
- CHEMICAL_STRING: "O=[N+]([O-])/N=C1\\NCCN1Cc1cnc(Cl)s1"
  ASSAY_VALUE: 5.97
- CHEMICAL_STRING: "O=[N+]([O-])/N=C1\\NCCCN1Cc1ccc(Cl)nc1"
  ASSAY_VALUE: 5.35
- CHEMICAL_STRING: "O=[N+]([O-])/N=C1\\SCCN1Cc1cnc(Cl)s1"
  ASSAY_VALUE: 6
- CHEMICAL_STRING: "O=[N+]([O-])/N=c1\\sccn1Cc1ccc(Cl)nc1"
  ASSAY_VALUE: 5.68

**Query** Can you look up log(1/BC) on Nicotinic acetylcholine receptor alpha8 subunit (Periplaneta americana) for O=[N+]([O-])/N=c1\ccccn1Cc1cnc(Cl)s1 ?
**Result** 5.75
